Tested on: Zika virus
test name: Inhibition of NS5 in Zika virus at 1 ug/ml after 10 mins in presence of nucleotide mix by fluorescence assay
particulars: dose 1.0 µg/ml
Classification by inhibition follows these ranges: class 1 (below 3%), class 2 (3% to below 6%), class 3 (6% or more)

# example entries with known answers
smiles representation: CC(=O)OC/C=C(\C)[C@@H]1C(C)=C[C@@H]2CC(=O)C[C@H](C)[C@H]2[C@@H]1/C=C/C=C/C(=O)O
assigned label: class 3

smiles representation: CC1=C[C@@H]2CCC[C@H](C)[C@H]2[C@H](/C=C/C=C/C(=O)O)[C@@H]1/C(C)=C/CO
assigned label: class 1

smiles representation: C/C=C(\C)[C@@H]1C(C)=C[C@@H]2C[C@H](O)C[C@H](C)[C@H]2[C@@H]1/C=C/C=C/C(=O)O
assigned label: class 2

smiles representation: CC1=C[C@@H]2CC(=O)C[C@H](C)[C@H]2[C@H](/C=C/C=C/C(=O)O)[C@@H]1/C(C)=C/CO
assigned label: class 1

smiles representation: C/C=C(\C)[C@@H]1C(C)=C[C@@H]2C[C@@H](O)C[C@H](C)[C@H]2[C@@H]1/C=C/C=C/C(=O)O
assigned label: class 3

smiles representation: CC1=C[C@@H]2C[C@@H](O)C[C@H](C)[C@H]2[C@H](/C=C/C=C/C(=O)O)[C@@H]1/C(C)=C/CO
assigned label: class 3

Task: Which class does `C/C=C(\C)[C@@H]1C(C)=C[C@@H]2CC(=O)C[C@H](C)[C@H]2[C@@H]1/C=C/C=C/C(=O)O` fall in?
Output: class 3

Task: Which class does `CC1=C[C@@H]2CC[C@@H](O)[C@H](C)[C@H]2[C@H](/C=C/C=C/C(=O)O)[C@@H]1/C(C)=C/CO` fall in?
Output: class 2

Task: Which class does `CC1=C[C@@H]2C[C@H](O)C[C@H](C)[C@H]2[C@H](/C=C/C=C/C(=O)O)[C@@H]1/C(C)=C/CO` fall in?
Output: class 3

Task: Which class does `CC(=O)OC/C=C(\C)[C@@H]1C(C)=C[C@@H]2CC[C@@H](O)[C@H](C)[C@H]2[C@@H]1/C=C/C=C/C(=O)O` fall in?
Output: class 2

Task: Which class does `C/C=C(\C)[C@@H]1C(C)=C[C@@H]2C[C@@H](OC(C)=O)C[C@H](C)[C@H]2[C@@H]1/C=C/C=C/C(=O)O` fall in?
Output: class 1

Task: Which class does `CC(=O)OC/C=C(\C)[C@@H]1C(C)=C[C@@H]2C[C@H](O)C[C@H](C)[C@H]2[C@@H]1/C=C/C=C/C(=O)O` fall in?
Output: class 1
